tested-on: RXRβ (UniProt P28704)
Sequence (P28704 1-520): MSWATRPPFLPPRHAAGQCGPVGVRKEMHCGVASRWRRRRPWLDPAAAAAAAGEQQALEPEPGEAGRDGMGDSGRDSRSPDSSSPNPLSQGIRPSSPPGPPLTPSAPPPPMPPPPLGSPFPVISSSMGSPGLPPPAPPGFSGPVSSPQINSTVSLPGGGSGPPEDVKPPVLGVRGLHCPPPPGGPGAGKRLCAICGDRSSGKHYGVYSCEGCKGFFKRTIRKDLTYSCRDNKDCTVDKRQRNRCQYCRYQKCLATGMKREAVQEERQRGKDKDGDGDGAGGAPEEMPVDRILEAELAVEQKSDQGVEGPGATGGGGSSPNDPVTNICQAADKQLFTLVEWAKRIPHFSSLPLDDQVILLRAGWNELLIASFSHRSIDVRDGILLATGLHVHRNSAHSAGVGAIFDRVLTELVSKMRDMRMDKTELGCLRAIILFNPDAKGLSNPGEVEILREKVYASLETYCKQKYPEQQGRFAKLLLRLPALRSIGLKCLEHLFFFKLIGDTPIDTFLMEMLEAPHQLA
assay-remarks: holoreceptor transactivation assay
Format: cell-based
test-settings: relative to 10^−6 M AGN 194204
metric: % efficacy, RXR Trans. β

* CCN(c1ccc(C(=O)O)cc1)c1ccc2c(c1)C(C(C)(C)C)=CCC2(C)C [Compound 88] | (100) %
* CCN(c1ccc(C(=O)O)cc1)c1cc2c(cc1C)C(C)(C)CC=C2C(C)C [Compound 25] | (96) %
* CCN(c1ccc2c(c1)C(C)=CCC2(C)C)c1ccc(C(=O)O)cn1 [Compound 170] | (110) %
* CCC1=CCC(C)(C)c2cc(N(CC)c3ccc(C(=O)O)cc3)c(C)cc21 [Compound 59] | (100) %

Consider the following items and state reported % efficacy, RXR Trans. β for each.
1. C=CCN(c1ccc(C(=O)O)cc1)c1ccc2c(c1)C(C(C)(C)C)=CCC2(C)C [Compound 90]
2. CCCN(c1ccc(C(=O)O)cc1)c1cc2c(cc1C)C(C)=CCC2(C)C [Compound 46]

1: (110) %; 2: (8) %

Which % efficacy, RXR Trans. β value belongs to CCC1=CCC(C)(C)c2cc(C)c(N(CC)c3ccc(C(=O)O)cc3)cc21 [Compound 24] ?
(96) %
